- Test system: MS2 coat protein
- method: apparent KD of MS2 coat protein; designed switch direction (-1 OFF switch, 1 ON switch): -1; higher = weaker reporter binding
- settings: input ligand: FMN 200 uM
Assign Met whenever apparent KD of MS2 coat protein does not fall below 80 nM; assign Not met whenever it does.

Some solved cases for reference:
item.sequence: CAGCUGAAAGUCAGGAUAUCUAGAGCUUCGGCUCUAGAGAAGGGACAUGAGGAUCACCCAUGUGAUCACAGCUG [BmEx4/4-A1] (Eterna round: R97, puzzle: Brourd's mod of Exclusion 4)
label: Met

item.sequence: AUUAGCGUAGGAUAUUGAUACAUGUACAUGAGGAUCACCCAUGUGAGGUGAGUCUUCGAUUAAGAAGGGCGCAGAA [EX5 #39] (Eterna round: R97, puzzle: Exclusion 5)
label: Met

item.sequence: AGAUCACAUGAGGAUCACCCAUGUCAGGAUAUCGUCACUGGAGCUGCGGCUCCAGUGACGAGAAGGGACAUAAU [E1/2-A3] (Eterna round: R97, puzzle: Exclusion 1)
label: Met

item.sequence: CUUAGUUGGUAAGGAUAUCCUACAUUGUUCUGGCCCGGGCAUGCUACAUGAGGAUCACCCAUGUGGGAGAAGGUGCGUCAUCGC [Design 18] (Eterna round: R96, puzzle: Exclusion NG 2)
label: Not met

item.sequence: AAAACGUCAGGAUAUCCAAUAUAUGACAUGAGGAUCACCCAUGUUUCCACUCGUACCUCCGGAGAAGGGACUAAUA [Ex5 #84] (Eterna round: R97, puzzle: Exclusion 5)
label: Not met

item.sequence: CUCCGACAUGAGGAUCACCCAUGUUAGGAUAUCCCACGCAGGUAGUGAGAGAAUCUGUGGAGAAGGAGCAGGGU [Eternabot (L2) Solution 74] (Eterna round: R97, puzzle: Exclusion 1)
label: Not met

item.sequence: GGUCAUCAAGUCAGGAUAUCGUCUGAUCAAUCAGGCGAGAAGGGACAUGAGGAUCACCCAUGUCGACUCAUCAG [Ex4 #7] (Eterna round: R97, puzzle: Brourd's mod of Exclusion 4)
label: Met

item.sequence: CAGCUGAAAGUGAGGAUAUCGACUGCUUCGGCAGUCGAGAAGGCACAUGAGGAUCACCCAUGUCUCAACAGCUG [BmEx4/1-A4] (Eterna round: R97, puzzle: Brourd's mod of Exclusion 4)
label: Not met

item.sequence: CAAAAGGGAGGAUAUACAUGAGGAUCACCCAUGUACGGUUCACGGGUAGGUGCGUAUAGUAGAAGGCCCGCAUA [Abiace] (Eterna round: R97, puzzle: Exclusion 3)
label: Met

Is the recorded value of apparent KD of MS2 coat protein equal to or greater than 80 nM for this sequence? UUGUAGUUUGUAGGAUAUGGUUAUGUAUGUAAUCUAGAAGGACAUGAGGAUCACCCAUGUGGAGGUAAGUUGGGAAGAAGUAAU [random1] (Eterna round: R96, puzzle: Exclusion NG 1) Not met

----------
- Test system: MS2 coat protein
- method: apparent KD of MS2 coat protein; designed switch direction (-1 OFF switch, 1 ON switch): -1; higher = weaker reporter binding
- settings: input ligand: FMN 200 uM
The following sequences are shown together with reported apparent KD of MS2 coat protein values.

// solved cases for apparent KD of MS2 coat protein follow
item.sequence: CCUGCGUGAGGAUAUACAUGAGGAUCACCCAUGUCACAAUUAACACACUCCGCCUCACGUAGAAGGCACGCAUA [Tienarra] (Eterna round: R97, puzzle: Exclusion 3)
apparent KD of MS2 coat protein: 23.1 nM

item.sequence: AACUUGUAAGGAUAUACAUGAGGAUCACCCAUGUGUCCCACGAACCGACAGGUCGUCUGUAGAAGGUGCAACAU [Eternabot (L1) Solution 88] (Eterna round: R97, puzzle: Exclusion 3)
apparent KD of MS2 coat protein: 29 nM

Please turn your attention to the following entry.
Give the value of apparent KD of MS2 coat protein reported for the following: UUAAUUAAUGUCAGGAUAUCUAGAGCCUCGGCUCUAGAGAAGGGACAUGAGGAUCACCCAUGUCACUCUUAAUU [BmEx4/3-C2] (Eterna round: R97, puzzle: Brourd's mod of Exclusion 4) 19.5 nM

Where do these numbers come from? They come from the supplement of paper PMC9170038.
